test system: OVCAR4; test: Euclidean distance of Cell Painting phenotypic profile (signed KS, 77 features) to DMSO centroid (dimensionless distance); 5 or 10 uM (library dependent); higher = stronger phenotypic change vs DMSO (phenoactivity); conditions: 48 h
recorded-metric: Euclidean distance

INSERT INTO measurements (compound, assay_target, reported_value) VALUES
  ('O=c1ccc2cc3ccoc3cc2o1', 'OVCAR4', 1.04),
  ('Nc1c(CC(=O)O)cccc1C(=O)c1ccc(Br)cc1 [Bromfenac Sodium]', 'OVCAR4', 1.75),
  ('CCCCc1nc(C)c(CC(=S)N(C)C)c(=O)n1Cc1ccc(-c2ccccc2-c2nnn[nH]2)cc1', 'OVCAR4', 0.989),
  ('COc1cc2c(cc1OC)CN(CCc1ccc(NC(=O)c3cc(OC)c(OC)cc3NC(=O)c3cnc4ccccc4c3)cc1)CC2', 'OVCAR4', 1.04);

###

We begin with a simple list: items and their reported Euclidean distance.
system: FB; test: Euclidean distance of Cell Painting phenotypic profile (signed KS, 77 features) to DMSO centroid (dimensionless distance); 5 or 10 uM (library dependent); higher = stronger phenotypic change vs DMSO (phenoactivity); settings: 48 h
Counter-ions that a name gives are not always drawn.
recorded-metric: Euclidean distance

INSERT INTO results (compound, reported_value) VALUES
  ('COc1ccc2c(c1)c(CC(=O)OCC(=O)O)c(C)n2C(=O)c1ccc(Cl)cc1 [Acemetacin]', 1.09),
  ('CO[C@H]1C(=O)[C@]2(C)[C@@H](OC)C[C@H]3OC[C@@]3(OC(C)=O)[C@H]2[C@H](OC(=O)c2ccccc2)[C@]2(O)C[C@H](OC(=O)[C@H](O)[C@@H](NC(=O)OC(C)(C)C)c3ccccc3)C(C)=C1C2(C)C [Cabazitaxel]', 2.6),
  ('COc1cc2ncnc(Nc3ccc(F)c(Cl)c3)c2cc1OCCCN1CCOCC1 [Gefitinib hydrochloride]', 0.779),
  ('CC(=C(CCO)SSCC1CCCO1)N(C=O)Cc1cnc(C)nc1N (stereo in doubt) [Fursultiamine]', 1.06),
  ('COCCCC/C(=N\OCCN)c1ccc(C(F)(F)F)cc1 [Fluvoxamine maleate]', 1.25),
  ('NCC(=O)O [Glycine]', 1),
  ('O=C(Nc1cc(C(F)(F)F)cc(C(F)(F)F)c1)c1cc(Cl)ccc1O', 1.14),
  ('COc1cccc(C=NCCN=Cc2cccc(OC)c2[O-])c1[O-].[Cl-].[Mn+3]', 0.887);

###

tested on: A549; test: Euclidean distance of Cell Painting phenotypic profile (signed KS, 77 features) to DMSO centroid (dimensionless distance); 5 or 10 uM (library dependent); higher = stronger phenotypic change vs DMSO (phenoactivity); settings: 48 h
We begin with a simple list: items and their reported Euclidean distance.
recorded-metric: Euclidean distance

INSERT INTO measurements (compound, recorded_metric, reported_value) VALUES
  ('N#CC[C@H](C1CCCC1)n1cc(-c2ncnc3[nH]ccc23)cn1', 'Euclidean distance', 1.27),
  ('CCCC(=O)Nc1ncnc2c1ncn2[C@@H]1O[C@@H]2COP(=O)(O)O[C@H]2[C@H]1OC(=O)CCC', 'Euclidean distance', 0.792),
  ('N#CCC1(n2cc(-c3ncnc4[nH]ccc34)cn2)CN(C2CCN(C(=O)c3ccnc(C(F)(F)F)c3F)CC2)C1', 'Euclidean distance', 1.05),
  ('CSc1nc2cc(Cl)c(Oc3cccc(Cl)c3Cl)cc2[nH]1', 'Euclidean distance', 0.638),
  ('Oc1c(Cl)cc(Cl)cc1Sc1cc(Cl)cc(Cl)c1O', 'Euclidean distance', 0.588),
  ('CN(C)c1cccc(-c2c3c(=O)n(-c4ccccc4Cl)[nH]c3cc(=O)n2C)c1', 'Euclidean distance', 1.99),
  ('NC(=S)N/N=C/c1ncccc1N', 'Euclidean distance', 2.65),
  ('CCCCC(=O)N(Cc1ccc(-c2ccccc2-c2nn[nH]n2)cc1)C(C(=O)O)C(C)C.CCOC(=O)C(C)CC(Cc1ccc(-c2ccccc2)cc1)NC(=O)CCC(=O)O (configuration not stated)', 'Euclidean distance', 0.709),
  ('NC(=NCCCCCCN=C(N)N=C(N)Nc1ccc(Cl)cc1)N=C(N)Nc1ccc(Cl)cc1 [Chlorhexidine?2HCl]', 'Euclidean distance', 3.13),
  ('CC(C)(C)CC(C)(C)c1ccc(OCCOCC[N+](C)(C)Cc2ccccc2)cc1 [Benzethonium Chloride]', 'Euclidean distance', 2.7),
  ('Cc1oncc1C(=O)Nc1ccc(C(F)(F)F)cc1 [Leflunomide]', 'Euclidean distance', 2.41),
  ('N[C@@H](CCC(=O)N[C@@H](CS)C(=O)NCC(=O)O)C(=O)O', 'Euclidean distance', 1.12),
  ('Cn1c(=O)c2c(ncn2CC(O)CO)n(C)c1=O (configuration not stated)', 'Euclidean distance', 0.909),
  ('O=C(NCc1c(F)cc(F)cc1F)c1cn2c(c(O)c1=O)C(=O)N1[C@H]3CC[C@H](C3)O[C@@H]1C2', 'Euclidean distance', 3.73),
  ('CC1(C)O[C@@H]2C[C@H]3[C@@H]4CCC5=CC(=O)CC[C@]5(C)[C@@]4(F)[C@@H](O)C[C@]3(C)[C@]2(C(=O)CCl)O1 [Halcinonide]', 'Euclidean distance', 2.25),
  ('Nc1ccc(C(=O)Nc2cccc(-c3nc(N4CCOCC4)c4oc5ncccc5c4n3)c2)cn1', 'Euclidean distance', 5.02),
  ('CN1CCN(C(=O)c2cc3cc(Cl)ccc3[nH]2)CC1', 'Euclidean distance', 0.827);
